Where a name gives a salt, the structure may show the parent alone.
readout: melting point

Example entries and their recorded answers appear below.
{"molecule": "CCCCN(C)CCc1cccc(Nc2ncc3c(n2)-c2ccccc2[C@H](c2ccc(Cl)c(Cl)c2)C3)c1 (as salt: hydrochloride)", "meas_value": "162 to 166 °C"}
{"molecule": "CN(C)CCCNc1ncc2c(n1)-c1ccccc1[C@H](c1ccc(Cl)c(Cl)c1)C2", "meas_value": "59 to 62 °C"}
{"molecule": "CCCCN(C)CCc1ccc(Nc2ncc3c(n2)-c2ccccc2C(c2ccc(Cl)cc2)C3)cc1 (stereo not shown) (as salt: hydrochloride)", "meas_value": "145 to 150 °C"}
{"molecule": "Clc1ccc(C2Cc3cnc(Nc4ccc(CCN5CCCCC5)cc4)nc3-c3ccccc32)cc1 (stereo not shown) (as salt: hydrochloride)", "meas_value": "170 to 175 °C"}
{"molecule": "COCCN1CCN(CCc2ccc(Nc3ncc4c(n3)-c3ccccc3[C@@H](c3ccccc3Cl)C4)cc2)CC1 (as salt: hydrochloride)", "meas_value": "143 to 145 °C"}

Lab note: CC(C)(C)OC(=O)N1CCC[C@@H](Nc2ncc3c(n2)-c2ccccc2[C@H](c2ccc(Cl)c(Cl)c2)C3)C1 gave melting point of 85 to 87 °C

Lab note: COCCN1CCN(CCc2cc(Nc3ncc4c(n3)-c3ccccc3[C@H](c3ccccc3F)C4)ccc2F)CC1 (as salt: hydrochloride) gave melting point of 199 to 201 °C

====

Where a name gives a salt, the structure may show the parent alone.
readout: melting point

Example entries and their recorded answers appear below.
{"compound": "CN(C)CCCNc1ncc2c(n1)-c1ccccc1[C@@H](c1ccc(Cl)c(Cl)c1)C2 [Example 12]", "melting point": "59 to 62 °C"}
{"compound": "Fc1ccc([C@@H]2Cc3cnc(Nc4ccc(CCN5CCOCC5)cc4)nc3-c3ccccc32)cc1F (as salt: hydrochloride) [Example 92]", "melting point": "97 to 99 °C"}
{"compound": "CCCCN(C)CCc1ccc(Nc2ncc3c(n2)-c2ccccc2[C@H](c2ccc(Cl)cc2)C3)cc1 (as salt: hydrochloride)", "melting point": "75 to 77 °C"}
{"compound": "COCCN1CCN(CCc2ccc(Nc3ncc4c(n3)-c3ccccc3[C@H](c3ccc(F)c(F)c3)C4)cc2)CC1 (as salt: hydrochloride) [Example 83]", "melting point": "190 to 192 °C"}
{"compound": "Clc1ccccc1[C@H]1Cc2cnc(Nc3ccc(CCN4CCCCC4)cc3)nc2-c2ccccc21 (as salt: hydrochloride)", "melting point": "164 to 167 °C"}
{"compound": "COCCN1CCN(CCc2ccc(Nc3ncc4c(n3)-c3ccccc3C(c3cccc(Br)c3)C4)cc2)CC1 (centres unmarked) [Example 32]", "melting point": "105 to 107 °C"}

Lab note: Brc1cccc(C2Cc3cnc(Nc4ccc(CCNCCN5CCCC5)cc4)nc3-c3ccccc32)c1 (centres unmarked) [Example 47] gave melting point of 83 to 85 °C

Lab note: COCCNCc1cccc(Nc2ncc3c(n2)-c2ccccc2[C@H](c2ccccc2F)C3)c1 (as salt: hydrochloride) [Example 178] gave melting point of 158 to 163 °C

Lab note: OCCc1ccc(Nc2ncc3c(n2)-c2ccccc2C(c2ccc(Cl)c(Cl)c2)C3)cc1 (centres unmarked) gave melting point of 94 to 96 °C

Lab note: CN(CCc1ccc(Nc2ncc3c(n2)-c2ccccc2[C@H](c2ccc(Cl)c(Cl)c2)C3)cc1)C1CCCCC1 (as salt: hydrochloride) [Example 106] gave melting point of 175 to 185 °C

Lab note: Brc1ccc([C@@H]2Cc3cnc(Nc4ccc(CCN5CCCCC5)cc4)nc3-c3ccccc32)cc1 (as salt: hydrochloride) [Example 103] gave melting point of 205 to 210 °C

Lab note: Brc1cccc(C2Cc3cnc(Nc4ccc(CCNCc5ccccc5)cc4)nc3-c3ccccc32)c1 (centres unmarked) [Example 46] gave melting point of 98 to 100 °C

Lab note: CN(C)CCNCCc1ccc(Nc2ncc3c(n2)-c2ccccc2C(c2cccc(Br)c2)C3)cc1 (centres unmarked) [Example 44] gave melting point of 75 to 77 °C

Lab note: Fc1ccc([C@@H]2Cc3cnc(Nc4ccc(CCN5CCCCC5)cc4)nc3-c3ccccc32)cc1 [Example 101] gave melting point of 185 to 188 °C

Sourced from patent US8357694B2
